All values here come from the RNAGym collection of RNA variant scans (doi:10.7554/elife.80360).

B1: CPEB3 Ribozyme (parent)
chain: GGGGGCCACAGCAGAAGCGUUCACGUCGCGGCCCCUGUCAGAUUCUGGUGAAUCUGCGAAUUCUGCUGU

# Variants of: B1
# assay_comment: self-cleavage, relative activity (ratio to wild type); higher = more cleavage; co-transcriptional
measured_quantity: self-cleavage

// query Can you share its self-cleavage? I mean this variant: C7G G19C
// result 0.106

// query Item under review: A10U C29A . Reported self-cleavage?
// result 0.722

// query Any idea what self-cleavage was measured for A15C G25C ?
// result 0.186

// query Using the record for G28C U46C , report its self-cleavage.
// result 0.131

// query Please give the measured self-cleavage for this variant: U38G A51G
// result 0.258

// query Given the variant G14A U64A , what is its reported self-cleavage?
// result 0.444

// query Which value of self-cleavage has been reported for G28A U61G in the records?
// result 0.214

// query Can you share its self-cleavage? I mean this variant: C35G C54U
// result 0.497

// query # get_value(readout='self-cleavage', item= G17C C18A )
// result 0.118

// query Consider the variant shown here: G28C C63A What is its recorded self-cleavage?
// result 0.186

// query Name the reported self-cleavage value associated with the variant G41A G50C
// result 0.453
